Source listed as the RNAGym collection of RNA variant scans (doi:10.7554/elife.80360).

B1: HDV Ribozyme (parent)
chain: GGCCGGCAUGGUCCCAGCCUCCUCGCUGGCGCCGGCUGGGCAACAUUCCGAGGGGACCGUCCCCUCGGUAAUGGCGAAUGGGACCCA

Variants of: B1
Experiment: self-cleavage, relative activity (ratio to wild type); higher = more cleavage; co-transcriptional
Outcome label depends on self-cleavage relative to 0.2: at/above gives rule met, below gives rule not met.

Reference set (5 entries):
# MUTATION NAME, CATEGORY LABEL
data = [
    ("A8C G67U", "rule met"),
    ("G55C G80A", "rule met"),
    ("U27C C41U", "rule met"),
    ("G25A C85G", "rule met"),
    ("G38A G53C", "rule not met"),
]

Textbook exercise: given the entry A16G G54U , state whether its self-cleavage is greater than or equal to 0.2.
rule met

// repeat for G11C C58A and report
rule met
